- method: Particle size distribution by dynamic light scattering (Malvern Mastersizer 2000)
- Format: physicochemical
- assay conditions: dynamic light scattering
measurement type: particle size D(0.10) (micron)

[A] CCC(=O)O[C@]1(C(=O)SCF)[C@H](C)C[C@H]2[C@@H]3C[C@H](F)C4=CC(=O)C=C[C@]4(C)[C@@]3(F)[C@@H](O)C[C@@]21C [Example 13, fluticasone propionate]
[B] CCC(=O)O[C@]1(C(=O)SCF)[C@H](C)C[C@H]2[C@@H]3C[C@H](F)C4=CC(=O)C=C[C@]4(C)[C@@]3(F)[C@@H](O)C[C@@]21C [Example 16, fluticasone propionate]
query: From the recorded data, which exceeds the other in particle size D(0.10): A or B ? Record your answer as the label of the chosen record.
result: B

All figures here come from patent US20060009435A1.
